This collection of values is drawn from the kinase profiling compilation of Christmann-Franck et al. (2016).

Target: CDK9 (human) (UniProt P50750)
Sequence (P50750 whole entry, looked up): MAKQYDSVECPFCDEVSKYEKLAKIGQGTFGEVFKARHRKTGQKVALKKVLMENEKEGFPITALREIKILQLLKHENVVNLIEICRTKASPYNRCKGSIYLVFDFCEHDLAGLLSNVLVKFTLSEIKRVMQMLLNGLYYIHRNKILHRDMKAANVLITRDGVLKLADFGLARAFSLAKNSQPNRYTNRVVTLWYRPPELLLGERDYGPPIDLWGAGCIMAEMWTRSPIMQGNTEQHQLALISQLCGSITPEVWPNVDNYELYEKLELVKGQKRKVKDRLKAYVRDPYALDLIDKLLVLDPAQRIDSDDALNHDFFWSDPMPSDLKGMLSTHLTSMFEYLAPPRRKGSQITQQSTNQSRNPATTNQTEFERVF
Assay: KINOMEscan competition binding
Conditions: compound 10.0 µM

{"smiles_input": "Nc1cccc(-c2cc(/C=C3\\SC(=O)NC3=O)c[nH]c2=O)c1", "kinase still bound, per cent of control": "25%"}
{"smiles_input": "O=C1NC(=O)/C(=C/c2c[nH]c(=O)c(-c3ccc(N4CCNCC4)nc3)c2)S1", "kinase still bound, per cent of control": "100%"}
{"smiles_input": "COc1cc(N2CCN(C)CC2)ccc1Nc1ncc2c(n1)N(C)c1sccc1C(=O)N2C", "kinase still bound, per cent of control": "76%"}
{"smiles_input": "COc1cc(N2CCN(C)CC2)ccc1Nc1ncc2c(n1)N(C)c1ccccc1N(C)C2=O", "kinase still bound, per cent of control": "100%"}
{"smiles_input": "CN1C(=O)c2ccccc2N(C)c2nc(NS(=O)(=O)c3ccc(N)cc3)ncc21", "kinase still bound, per cent of control": "100%"}
{"smiles_input": "CN1CCN(c2ccc(C(=O)Nc3ncc4c(n3)N(C)c3ccccc3C(=O)N4C)cc2)CC1", "kinase still bound, per cent of control": "100%"}
{"smiles_input": "CN1C(=O)c2ccccc2N(C)c2nc(Nc3ccc(N4CCC(O)CC4)cc3)ncc21", "kinase still bound, per cent of control": "100%"}
{"smiles_input": "COc1cc(N2CCN(C)CC2)ccc1Nc1ncc2c(n1)Nc1ccccc1NC2=O", "kinase still bound, per cent of control": "100%"}
{"smiles_input": "COc1cc(N2CCC(O)CC2)ccc1Nc1ncc2c(n1)N1CCc3cccc(c31)C(=O)N2C", "kinase still bound, per cent of control": "100%"}

---

Molecular target: PIM3 (human)
Experiment: KINOMEscan competition binding
Details: compound 10.0 µM
Overview of reported kinase still bound, per cent of control across a group of compounds:
reported_metric: kinase still bound, per cent of control (%)

{"smiles_input": "N=C1NC(=O)/C(=C/c2ccc(-c3cnc4ccccc4c3)o2)S1", "reported_metric": "kinase still bound, per cent of control", "value_unit": "%", "observed_measurement": 3.2}
{"smiles_input": "CS(=O)(=O)Nc1ccc(-c2ccc(/C=C3\\SC(=N)NC3=O)o2)c(O)c1", "reported_metric": "kinase still bound, per cent of control", "value_unit": "%", "observed_measurement": 4.8}
{"smiles_input": "CN(C)C1=NC(=O)/C(=C/c2ccc(-c3ccc(S(N)(=O)=O)cc3)o2)S1", "reported_metric": "kinase still bound, per cent of control", "value_unit": "%", "observed_measurement": 2.9}
{"smiles_input": "N=C1NC(=O)/C(=C/c2ccc(-c3ccc4c(C(=O)Nc5ccc(N6CCNCC6)cc5)cccc4c3)o2)S1", "reported_metric": "kinase still bound, per cent of control", "value_unit": "%", "observed_measurement": 8.2}
{"smiles_input": "O=C1NC(=O)/C(=C/c2c[nH]c(=O)c(-c3ccc(N4CCNCC4)nc3)c2)S1", "reported_metric": "kinase still bound, per cent of control", "value_unit": "%", "observed_measurement": 0.65}

---

Molecular target: PIM2 (human) (UniProt Q9P1W9)
Sequence (Q9P1W9 whole entry, looked up): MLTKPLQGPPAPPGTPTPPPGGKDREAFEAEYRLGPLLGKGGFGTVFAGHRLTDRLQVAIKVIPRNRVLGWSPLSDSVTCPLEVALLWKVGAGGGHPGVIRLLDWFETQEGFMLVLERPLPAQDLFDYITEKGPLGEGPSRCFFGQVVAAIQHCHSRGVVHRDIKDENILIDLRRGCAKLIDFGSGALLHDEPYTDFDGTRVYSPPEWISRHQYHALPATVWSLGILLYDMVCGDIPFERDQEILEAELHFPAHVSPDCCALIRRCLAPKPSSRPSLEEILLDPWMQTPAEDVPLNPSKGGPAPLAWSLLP
Assay: KINOMEscan competition binding
Conditions: compound 10.0 µM
One threshold, 2%, splits the recorded kinase still bound, per cent of control values: lower ones are Condition met, equal or higher ones are Condition not met.

{"smiles_input": "COc1cc(C(N)=O)ccc1-c1ccc(/C=C2\\SC(=N)NC2=O)o1", "assigned_label": "Condition met"}
{"smiles_input": "N=C1NC(=O)/C(=C/c2ccc(-c3ccc(S(N)(=O)=O)cc3)o2)S1", "assigned_label": "Condition met"}
{"smiles_input": "CCN1CCN(Cc2cc(NC(=O)c3cccc4cc(-c5ccc(/C=C6\\SC(=O)NC6=O)o5)ccc34)cc(C(F)(F)F)c2)CC1", "assigned_label": "Condition met"}
{"smiles_input": "N=C1NC(=O)/C(=C/c2cccc(-c3ccc(S(N)(=O)=O)cc3)c2)S1", "assigned_label": "Condition not met"}
{"smiles_input": "COc1cc(N2CCC(O)CC2)ccc1Nc1ncc2c(n1)N1CCc3cccc(c31)C(=O)N2C", "assigned_label": "Condition not met"}

---

Molecular target: UniProtKB Q9UQM7
Sequence (Q9UQM7 whole entry, looked up): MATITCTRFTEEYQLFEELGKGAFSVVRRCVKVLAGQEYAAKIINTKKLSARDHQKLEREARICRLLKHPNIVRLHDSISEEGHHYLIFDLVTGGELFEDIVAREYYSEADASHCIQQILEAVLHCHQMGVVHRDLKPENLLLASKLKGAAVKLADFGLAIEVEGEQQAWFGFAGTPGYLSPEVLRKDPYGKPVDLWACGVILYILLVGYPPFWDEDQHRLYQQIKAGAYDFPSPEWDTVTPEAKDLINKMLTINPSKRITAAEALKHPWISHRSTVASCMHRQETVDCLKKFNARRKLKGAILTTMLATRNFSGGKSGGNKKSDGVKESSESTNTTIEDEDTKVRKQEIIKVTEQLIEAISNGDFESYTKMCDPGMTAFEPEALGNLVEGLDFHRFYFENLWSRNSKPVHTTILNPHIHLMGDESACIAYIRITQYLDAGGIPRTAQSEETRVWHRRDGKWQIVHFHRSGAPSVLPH
Assay: KINOMEscan competition binding
Settings: compound 10.0 µM
One threshold, 20%, splits the recorded kinase still bound, per cent of control values: lower ones are 1 (yes), equal or higher ones are 0 (no).

{"compound": "COc1cc(N2CCC(O)CC2)ccc1Nc1ncc2c(n1)N1CCc3cccc(c31)C(=O)N2C", "assigned_label": "0 (no)"}
{"compound": "O=C1NC(=S)S/C1=C\\c1ccc(-c2cncc3ccccc23)o1", "assigned_label": "0 (no)"}
{"compound": "NS(=O)(=O)c1ccc(-c2ccc(/C=C3\\SC(=S)N(CC(=O)O)C3=O)o2)cc1", "assigned_label": "0 (no)"}
{"compound": "O=C1NC(=O)/C(=C/c2c[nH]c(=O)c(-c3ccc(N4CCNCC4)nc3)c2)S1", "assigned_label": "1 (yes)"}
{"compound": "CN1C(=O)c2ccccc2N(C)c2nc(Nc3ccc(N4CCC(O)CC4)cc3)ncc21", "assigned_label": "0 (no)"}
{"compound": "COc1cc(N2CCN(C)CC2)ccc1Nc1ncc2c(n1)N(C)c1sccc1C(=O)N2C", "assigned_label": "0 (no)"}
{"compound": "N=C1NC(=O)/C(=C/c2ccc(-c3cncc4ccccc34)o2)S1", "assigned_label": "1 (yes)"}
{"compound": "COc1cc(C(=O)NC2CCN(C)CC2)ccc1Nc1ncc2c(n1)N(C1CCCC1)C(C)CC(=O)N2C (centres undefined)", "assigned_label": "0 (no)"}
{"compound": "CCN1C(=O)CC(C(C)C)N(C2CCCC2)c2nc(Nc3ccc(C(=O)NC4CCN(C)CC4)cc3OC)ncc21 (centres undefined)", "assigned_label": "1 (yes)"}
{"compound": "COc1cc(N2CCN(C)CC2)ccc1Nc1ncc2c(n1)N(C)c1ccccc1C(=O)N2C", "assigned_label": "0 (no)"}
{"compound": "COc1cc(N2CCN(C)CC2)ccc1Nc1ncc2c(n1)N(C)c1ccccc1N(C)C2=O", "assigned_label": "0 (no)"}
{"compound": "CN1CCN(c2ccc(C(=O)Nc3ncc4c(n3)N(C)c3ccccc3C(=O)N4C)cc2)CC1", "assigned_label": "0 (no)"}
{"compound": "COc1cc(C(=O)NC2CCN(C)CC2)ccc1Nc1ncc2c(n1)N(C1CCCC1)CCC(=O)N2C", "assigned_label": "0 (no)"}
{"compound": "N=C1NC(=O)/C(=C/c2ccc(-c3ccc(C(N)=O)cc3O)o2)S1", "assigned_label": "0 (no)"}
{"compound": "CN1C(=O)c2ccccc2N(C)c2nc(NS(=O)(=O)c3ccc(N)cc3)ncc21", "assigned_label": "0 (no)"}
{"compound": "COc1cc(N2CCN(C)CC2)ccc1Nc1ncc2c(n1)N(C(C)C)c1ccccc1C(=O)N2", "assigned_label": "1 (yes)"}
{"compound": "COc1cc(N2CCN(C)CC2)ccc1Nc1ncc2c(n1)Nc1ccccc1NC2=O", "assigned_label": "0 (no)"}

---

Molecular target: LYN (human)
Test: KINOMEscan competition binding
Details: compound 10.0 µM
One threshold, 80%, splits the recorded kinase still bound, per cent of control values: lower ones are y, equal or higher ones are n.

{"smiles_input": "COc1cc(N2CCN(C)CC2)ccc1Nc1ncc2c(n1)Nc1ccccc1NC2=O", "system_name": "LYN (human)", "assigned_label": "y"}
{"smiles_input": "COc1cc(N2CCC(O)CC2)ccc1Nc1ncc2c(n1)N1CCc3cccc(c31)C(=O)N2C", "system_name": "LYN (human)", "assigned_label": "n"}
{"smiles_input": "COc1cc(N2CCN(C)CC2)ccc1Nc1ncc2c(n1)N(C)c1sccc1C(=O)N2C", "system_name": "LYN (human)", "assigned_label": "n"}
{"smiles_input": "CN1C(=O)c2ccccc2N(C)c2nc(NS(=O)(=O)c3ccc(N)cc3)ncc21", "system_name": "LYN (human)", "assigned_label": "n"}
{"smiles_input": "O=C1NC(=O)/C(=C/c2c[nH]c(=O)c(-c3ccc(N4CCNCC4)nc3)c2)S1", "system_name": "LYN (human)", "assigned_label": "y"}
{"smiles_input": "CN1CCN(c2ccc(C(=O)Nc3ncc4c(n3)N(C)c3ccccc3C(=O)N4C)cc2)CC1", "system_name": "LYN (human)", "assigned_label": "n"}

---

Molecular target: MAPK12 (human) (UniProt P53778)
Sequence (P53778 whole entry, looked up): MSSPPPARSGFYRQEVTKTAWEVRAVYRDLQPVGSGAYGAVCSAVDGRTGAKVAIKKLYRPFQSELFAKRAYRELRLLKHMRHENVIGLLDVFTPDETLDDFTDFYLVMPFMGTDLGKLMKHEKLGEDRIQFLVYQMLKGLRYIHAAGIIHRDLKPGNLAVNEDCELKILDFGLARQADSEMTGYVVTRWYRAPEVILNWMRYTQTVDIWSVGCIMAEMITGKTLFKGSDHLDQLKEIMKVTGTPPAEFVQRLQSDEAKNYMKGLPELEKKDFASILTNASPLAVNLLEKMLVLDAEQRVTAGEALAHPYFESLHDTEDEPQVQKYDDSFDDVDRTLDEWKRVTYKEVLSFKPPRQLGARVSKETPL
Assay: KINOMEscan competition binding
Details: compound 10.0 µM
One threshold, 30%, splits the recorded kinase still bound, per cent of control values: lower ones are 1.0, equal or higher ones are 0.0.

{"smiles_input": "COc1cc(N2CCN(C)CC2)ccc1Nc1ncc2c(n1)Nc1ccccc1NC2=O", "assigned_label": 0.0}
{"smiles_input": "O=C1NC(=O)/C(=C/c2c[nH]c(=O)c(-c3ccc(N4CCNCC4)nc3)c2)S1", "assigned_label": 0.0}
{"smiles_input": "NS(=O)(=O)c1ccc(-c2ccc(/C=C3\\SC(=O)NC3=O)o2)cc1", "assigned_label": 1.0}
{"smiles_input": "CS(=O)(=O)Nc1ccc(-c2ccc(/C=C3\\SC(=N)NC3=O)o2)cc1", "assigned_label": 1.0}
{"smiles_input": "COc1cc(N2CCN(C)CC2)ccc1Nc1ncc2c(n1)N(C)c1ccccc1N(C)C2=O", "assigned_label": 0.0}
{"smiles_input": "N=C1NC(=O)/C(=C/c2ccc(-c3ccc(S(N)(=O)=O)cc3)o2)S1", "assigned_label": 1.0}
{"smiles_input": "CN1C(=O)c2ccccc2N(C)c2nc(Nc3ccc(N4CCC(O)CC4)cc3)ncc21", "assigned_label": 0.0}
{"smiles_input": "COc1cc(N2CCN(C)CC2)ccc1Nc1ncc2c(n1)N(C)c1sccc1C(=O)N2C", "assigned_label": 0.0}
{"smiles_input": "COc1cc(C(N)=O)ccc1-c1ccc(/C=C2\\SC(=N)NC2=O)o1", "assigned_label": 1.0}
{"smiles_input": "CN1C(=O)c2ccccc2N(C)c2nc(NS(=O)(=O)c3ccc(N)cc3)ncc21", "assigned_label": 0.0}
{"smiles_input": "COc1cc(N2CCC(O)CC2)ccc1Nc1ncc2c(n1)N1CCc3cccc(c31)C(=O)N2C", "assigned_label": 0.0}
{"smiles_input": "CN1CCN(c2ccc(C(=O)Nc3ncc4c(n3)N(C)c3ccccc3C(=O)N4C)cc2)CC1", "assigned_label": 0.0}
{"smiles_input": "CN(C)C1=NC(=O)/C(=C/c2ccc(-c3ccc(S(N)(=O)=O)cc3)o2)S1", "assigned_label": 0.0}
